tested on: Cryptococcus neoformans; test: Antifungal activity against Cryptococcus neoformans after 72 hrs by serial dilution method; type: functional
measured.parameter: MIC80 (µg/mL)
Give a bare numeral; the unit µg/mL is implied.

[[record]]
molecule = "O=c1n(-c2ccc(C(F)(F)C(O)(Cn3cnnn3)c3ccc(F)cc3F)nc2)cnn1Cc1ccccn1 (stereo not drawn)"
target_or_system = "Cryptococcus neoformans"
recorded_number = 1

[[record]]
molecule = "O=c1n(-c2ccc(C(F)(F)C(O)(Cn3cnnn3)c3ccc(F)cc3F)nc2)cnn1CC1CC1 (stereo not drawn)"
target_or_system = "Cryptococcus neoformans"
recorded_number = 4

[[record]]
molecule = "OC(Cn1cncn1)(Cn1cncn1)c1ccc(F)cc1F"
target_or_system = "Cryptococcus neoformans"
recorded_number = 0.5


Exam item: What reported MIC80 corresponds to CCn1ncn(-c2ccc(C(F)(F)C(O)(Cn3cnnn3)c3ccc(F)cc3F)nc2)c1=O (stereo not drawn) on Cryptococcus neoformans?
Marked response: 8

Exam item: Find MIC80 (Cryptococcus neoformans) for the entry O=c1n(-c2ccc(C(F)(F)C(O)(Cn3cnnn3)c3ccc(F)cc3F)nc2)cnn1Cc1ccc(OC(F)(F)F)cc1 (stereo not drawn)
Marked response: 2

Exam item: Return MIC80 measured with Cryptococcus neoformans given this molecule: CC1CCC(n2ncn(-c3ccc(C(F)(F)C(O)(Cn4cnnn4)c4ccc(F)cc4F)nc3)c2=O)CC1 (stereo not drawn)
Marked response: 1

Exam item: Item Cc1ccc(Cn2ncn(-c3ccc(C(F)(F)C(O)(Cn4cnnn4)c4ccc(F)cc4F)nc3)c2=O)cc1 (stereo not drawn) with Cryptococcus neoformans - MIC80?
Marked response: 2

Exam item: Lab note: need MIC80 with Cryptococcus neoformans for entry O=c1n(-c2ccc(C(F)(F)C(O)(Cn3cnnn3)c3ccc(F)cc3F)nc2)cnn1Cc1cccnc1 (stereo not drawn) , please look it up.
Marked response: 2
